Test system: HT29 colon
Protocol Details: NCI tumour cell line growth inhibition, 48 h
Give 1 when the value for TGI is at least 30 µM. Give -1 when it is less.

>  <Molecule>
O=c1oc2ccc(I)cc2c(=O)n1-c1ccc(Br)cc1F

>  <Category Label>
-1

$$$$
>  <Molecule>
CCOc1cc(C2CC(c3ccc(NS(=O)(=O)c4cc([N+](=O)[O-])ccc4C)cc3)=NN2S(=O)(=O)c2cc([N+](=O)[O-])ccc2C)ccc1O (stereo not given)

>  <Category Label>
1

$$$$
>  <Molecule>
Clc1c(Cl)[n+](Cc2ccc3ccccc3c2)cn1Cc1ccc2ccccc2c1

>  <Category Label>
-1

$$$$
>  <Molecule>
Cc1c(-c2cnccn2)ssc1=S

>  <Category Label>
1

$$$$
>  <Molecule>
C=C(C)C12CC3CC(/C(=N/O)C(C1)/C3=N\O)[C@@]2(C)O (stereo not given in full)

>  <Category Label>
1

$$$$
>  <Molecule>
C[C@@H](Oc1cc(-n2cnc3ccc(OC4CCN(C)CC4)cc32)sc1C(N)=O)c1ccccc1Cl

>  <Category Label>
-1

$$$$
>  <Molecule>
COc1ccc(C(CC2(c3ccc(OC)cc3)SCCCS2)NC(C)=O)cc1 (stereo not given)

>  <Category Label>
1

$$$$
>  <Molecule>
NC(=O)C1CCCN1C(=O)C(Cc1cnc[nH]1)NC(=O)C1CCCC1 (stereo not given)

>  <Category Label>
1

$$$$
>  <Molecule>
Oc1c(Br)cc(/C=C/c2ccnc(/C=C/c3cc(Br)c(O)c(Br)c3)c2)cc1Br

>  <Category Label>
1

$$$$
>  <Molecule>
O=C(O)c1cc(-c2ccc3cc4c(cc3c2)OCO4)nc2ccccc12

>  <Category Label>
1

$$$$
>  <Molecule>
COc1ccc(Cc2c3cc(O)c(=O)cc-3ccn2C)cc1

>  <Category Label>
1

$$$$
>  <Molecule>
O=C1NC2c3c(I)sc(I)c3C(=O)C2O1 (stereo not given)

>  <Category Label>
-1

$$$$
>  <Molecule>
Cc1ccc2c(c1)SC1=Nc3sc4cc(C)ccc4[n+]3CN12

>  <Category Label>
-1

$$$$
>  <Molecule>
Nc1nc(/C=C\c2ccc([N+](=O)[O-])s2)nc(N2CCN(c3ccccc3)CC2)n1

>  <Category Label>
1

$$$$
>  <Molecule>
CCN1CCC(O)(c2ccc(Oc3ccc(Cl)cc3)cc2)C(C(=O)c2ccc(Oc3ccc(Cl)cc3)cc2)C1 (stereo not given)

>  <Category Label>
-1

$$$$
>  <Molecule>
C=CC(=O)Nc1ccc(NC(=O)C=C)c2c1C(=O)c1ccccc1C2=O

>  <Category Label>
1

$$$$
>  <Molecule>
O=C(CSc1nc2c(n1Nc1ccccc1)-c1ccccc1SC2)Nc1nc(-c2ccc(Cl)cc2)cs1

>  <Category Label>
1

$$$$
>  <Molecule>
C[C@@H]1C[C@H]2[C@@H]3CCC4=CC(=O)C=C[C@]4(C)[C@@]3(F)[C@@H](O)C[C@]2(C)[C@@]1(O)C(=O)CO

>  <Category Label>
1

$$$$

====

Test system: DU-145 prostate
Protocol Details: NCI tumour cell line growth inhibition, 48 h
Where a SMILES comes first, the peptide text is derived from it. Bridges are numbered along the chain shown (N, C = ends). [ ]: non-standard residue; d: D form. Aib = CC(C)(N)C(=O)O; βAla = NCCC(=O)O
Reported TGI values are given for each entry in this list.

>  <Compound>
O=c1c2ccccc2sc2c(NCCCNCCO)nc3ccccc3c12

>  <TGI>
3.33 µM

$$$$
>  <Compound>
CC(C)C[C@H](NC(=O)CNC(=O)c1cc(Cl)ccc1Cl)B(O)O

>  <TGI>
15.3 µM

$$$$
>  <Compound>
CC1CC(N)=C(C#N)C1(C#N)C#N (stereo not given)

>  <TGI>
> 100 µM

$$$$
>  <Compound>
O=c1nc2n3c4c(cccc4nc-2c(=O)[nH]1)CCC3

>  <TGI>
> 100 µM

$$$$
>  <Compound>
N#CC12C(=O)NC(=O)C1(C#N)C1C=CC2CC1 (stereo not given)

>  <TGI>
> 100 µM

$$$$
>  <Compound>
O=c1ccc2ccc(OP(=O)(O)O)cc2o1

>  <TGI>
> 100 µM

$$$$
>  <Compound>
O=C1C2C(C(=O)N1c1ccccc1)C1(c3ccccc3)CCC2(C(=O)c2ccccc2)O1 (stereo not given)

>  <TGI>
> 10 µM

$$$$
>  <Compound>
O=C(COc1ccc(Cl)c(Cl)c1)Nc1ccc[n+](Cc2ccc(S(=O)(=O)F)c(Cl)c2)c1

>  <TGI>
> 100 µM

$$$$
>  <Compound>
COc1cc2c(cc1OC(C)C)[C@H](c1ccc(Cl)cc1)N(c1ccc(N(C)CC3CCC(N4CCN(C)C(=O)C4)CC3)cc1)C(=O)C2 (stereo not given in full)

>  <TGI>
11.2 µM

$$$$
>  <Compound>
COC(COC(N)=O)C1=C(N2CC2)C(=O)C(C)=C(N2CC2)C1=O (stereo not given)

>  <TGI>
0.0264 µM

$$$$
>  <Compound>
CN1C(=O)C2(C)SC1(c1ccccc1)C1C(=O)N(c3ccccc3)C(=O)C12 (stereo not given)

>  <TGI>
> 100 µM

$$$$
>  <Compound>
CN[C@H]1CN(c2ccc3c(=O)c(C(=O)O)cn(-c4nccs4)c3n2)C[C@@H]1OC

>  <TGI>
5.28 µM

$$$$
>  <Compound>
COc1ccc(C2SC(N)=Nc3c2c(C)nn3C(=O)c2ccccc2O)cc1OC (stereo not given)

>  <TGI>
> 10 µM

$$$$
>  <Compound>
O=C(CSCC(=O)N/N=C/c1ccc2c(c1)OCO2)N/N=C/c1ccc2c(c1)OCO2

>  <TGI>
> 100 µM

$$$$
>  <Compound>
CO/C=C/C=C(\C#N)C(=O)OC

>  <TGI>
> 100 µM

$$$$
>  <Compound>
Cc1cc2nc(NCCN)n(Cc3ccc(F)c(Cl)c3)c2cc1C

>  <TGI>
27.4 µM

$$$$
>  <Compound>
Cc1ccc(C)n1-c1ccccc1C1C=Cn2c(=O)nnc3c(OC(C)C)c(OC(C)C)c(O)c1c32 (stereo not given)

>  <TGI>
> 100 µM

$$$$
>  <Compound>
CC1(C)NC(=O)C(NC(=O)C(N)CC(=O)O)CCCCNC(=O)CCNC1=O (stereo not given) (H-DK[Aib][βAla]; lactam 2-C; configuration not given here)

>  <TGI>
> 100 µM

$$$$
>  <Compound>
COC(=O)c1c([N+](=O)[O-])ncn1[C@H]1OC[C@@H](OC(C)=O)[C@@H](OC(C)=O)[C@@H]1OC(C)=O

>  <TGI>
> 100 µM

$$$$
>  <Compound>
CCOCCOCCOCc1nc(C#N)c(N)o1

>  <TGI>
> 100 µM

$$$$

====

Reported GI50 values are given for each entry in this list.
Tested on: HCC-2998 colon
Protocol Details: NCI tumour cell line growth inhibition, 48 h

>  <Molecule>
O=c1c2ccccc2sc2c(NCCCNCCO)nc3ccccc3c12

>  <Target Entity>
HCC-2998 colon

>  <GI50>
1.72 µM

$$$$
>  <Molecule>
CNC(=O)c1c(C)oc2cc(Oc3ncnc4cc(OC)c(OC)cc34)ccc12

>  <Target Entity>
HCC-2998 colon

>  <GI50>
> 100 µM

$$$$
>  <Molecule>
CC1Cc2c(Cl)ncnc2N(C)c2ccc(Cl)cc21 (configuration not stated)

>  <Target Entity>
HCC-2998 colon

>  <GI50>
0.307 µM

$$$$
>  <Molecule>
O=C(CN(/C=C/C(=O)C(F)(F)F)c1ccc(Cl)cc1)c1ccc(Cl)cc1

>  <Target Entity>
HCC-2998 colon

>  <GI50>
15.7 µM

$$$$
>  <Molecule>
Cc1ccc(O)c(NC(=O)c2cccc(Nc3ccnc(C(F)(F)F)c3)c2)c1

>  <Target Entity>
HCC-2998 colon

>  <GI50>
10.5 µM

$$$$
>  <Molecule>
O=c1c2c(nc3n1CCS3)[nH]c1cc([N+](=O)[O-])ccc12

>  <Target Entity>
HCC-2998 colon

>  <GI50>
> 100 µM

$$$$
>  <Molecule>
CC(C)C[C@H](NC(=O)CNC(=O)c1cc(Cl)ccc1Cl)B(O)O

>  <Target Entity>
HCC-2998 colon

>  <GI50>
0.0199 µM

$$$$
>  <Molecule>
Oc1c(Cl)cc(Cl)c(Cl)c1CNCCNCc1c(O)c(Cl)cc(Cl)c1Cl

>  <Target Entity>
HCC-2998 colon

>  <GI50>
2.69 µM

$$$$
>  <Molecule>
Cc1cc2c(C(=O)NC[C@H](C)c3ccccc3)c(O)c(O)cc2c(O)c1-c1c(C)cc2c(C(=O)NC[C@H](C)c3ccccc3)c(O)c(O)cc2c1O

>  <Target Entity>
HCC-2998 colon

>  <GI50>
0.932 µM

$$$$
>  <Molecule>
CCOC(=O)C1=CCCC[C@H]1S(=O)(=O)Nc1ccc(F)cc1Cl

>  <Target Entity>
HCC-2998 colon

>  <GI50>
31.2 µM

$$$$
>  <Molecule>
CN[C@H]1CN(c2ccc3c(=O)c(C(=O)O)cn(-c4nccs4)c3n2)C[C@@H]1OC

>  <Target Entity>
HCC-2998 colon

>  <GI50>
0.856 µM

$$$$
>  <Molecule>
O=C(NCCCCN1CCOCC1)c1cc2ccccc2o1

>  <Target Entity>
HCC-2998 colon

>  <GI50>
> 100 µM

$$$$
